Activity: recorded values
Test system: Erythrocyte
Test: Hemolytic activity in human RBC assessed as membrane mortification by measuring […] stabilization by absorbance method relative to control
Format: ADME, cell-based
Parameters: concentration or dose not given beside the values

| MOLECULE | QUANTITY_UNIT | Activity |
| --- | --- | --- |
| COc1cc(OC)c2c(c1C(C)=O)OC(C)(C)C(OC)C2F (stereo unspecified) | % | 85.15 |
| COc1cc(OC)c2c(c1C(C)=O)OC(C)(C)[C@H](O)[C@@H]2O | % | 85.31 |
| COc1cc(O)c2c(c1C(C)=O)OC(C)(C)C(OC)C2Cl (stereo unspecified) | % | 93.25 |
| COc1cc(OS(=O)(=O)C(F)(F)F)c2c(c1C(C)=O)OC(C)(C)C=C2 | % | 98.84 |
| COc1cc2c(c(O)c1C(C)=O)C(=O)CC(C)(C)O2 | % | 80.65 |
| COc1cc(OC)c2c(c1C(C)=O)OC(C)(C)C(OC)C2Cl (stereo unspecified) | % | 86.37 |
| COc1c(Br)c(OC)c(C(C)=O)c2c1C=CC(C)(C)O2 | % | 86.16 |
| COc1ccc2c(c1)c(CC(=O)O)c(C)n2C(=O)c1ccc(Cl)cc1 | % | 85.64 |
| COc1cc(O)c2c(c1C(C)=O)OC(C)(C)C=C2 | % | 90.45 |
| COc1cc2c(c(OC)c1C(C)=O)[C@H](O)[C@H](O)C(C)(C)O2 | % | 80.88 |
| COc1cc(OC)c2c(c1C(C)=O)OC(C)(C)[C@@H](O)[C@H]2O | % | 88.52 |

* * *

Tested on: Klebsiella pneumoniae
Test: Antibacterial activity against Klebsiella pneumoniae MTCC 530
Format: functional
METRIC: MIC (µg/mL)

| COMPOUND | METRIC | QUANTITY_UNIT | OBSERVED_VALUE |
| --- | --- | --- | --- |
| COc1cc(OC)c2c(c1C(C)=O)OC(C)(C)[C@H](O)[C@@H]2O | MIC | µg/mL | 2.18 |
| COc1cc(O)c2c(c1C(C)=O)OC(C)(C)C(OC)C2Cl (stereo unspecified) | MIC | µg/mL | 0.72 |
| COc1cc2c(c(O)c1C(C)=O)C(=O)CC(C)(C)O2 | MIC | µg/mL | 2.24 |
| COc1cc2c(c(OC)c1C(C)=O)[C@H](O)[C@H](O)C(C)(C)O2 | MIC | µg/mL | 3.88 |
| COc1c(Br)c(OC)c(C(C)=O)c2c1C=CC(C)(C)O2 | MIC | µg/mL | 1.99 |
| COc1cc(OS(=O)(=O)C(F)(F)F)c2c(c1C(C)=O)OC(C)(C)C=C2 | MIC | µg/mL | 0.64 |
| COc1cc(OC)c2c(c1C(C)=O)OC(C)(C)[C@@H](O)[C@H]2O | MIC | µg/mL | 0.92 |
| COc1cc(OC)c2c(c1C(C)=O)OC(C)(C)C(OC)C2F (stereo unspecified) | MIC | µg/mL | 0.76 |
| COc1cc(O)c2c(c1C(C)=O)OC(C)(C)C=C2 | MIC | µg/mL | 0.9 |
| COc1cc(OC)c2c(c1C(C)=O)OC(C)(C)C(OC)C2Cl (stereo unspecified) | MIC | µg/mL | 0.96 |
